- target_under_test: 6His-Tev-LRRK2 (1326-2527) (Homo sapiens)
- Construct: A LRRK2 cDNA encoding residues 1326-2527 was received from Dundee University; made in house; host or cells: Spodoptera frugiperda (Sf9) insect cells, baculovirus (pFB-HTb)
- assay_comment: LRRK2 peptide substrate assay
- Assay type: biochemical
- test_context: mean pIC50 of multiple test results; Biotin-LRRKtide peptide substrate, ATP at Km; read-out: LRRK2 peptide substrate assay (pIC50) (converted)
result_type: IC50 (µM)

Worked examples, 3 compounds total:
> print(dat)
                           substance.smiles  units  quantitative.readout
1  CN(C)C(=O)c1cc(OCc2ccccc2)c(C(=O)Nc2cccnc2)cc1-c1cnn(C)c1     µM                0.0501
2  O=C(Nc1cccnc1)c1cc(C(F)(F)F)c(C(=O)N2CCOCC2)cc1OCc1ccccc1     µM                0.0398
3  Cn1cc(-c2cc(C(=O)Nc3cccnc3)c(OCc3ccc(F)cc3)cc2CN2CCOCC2)cn1     µM                0.0501

P = O=C(Nc1cccnc1)c1cc(Br)c(CN2CCOCC2)cc1OCc1ccccc1
Q = Cn1cc(-c2cc(C(=O)Nc3cccnc3)c(OCc3ccccc3)cc2CN2CCOCC2)cn1
Which of the two items, P and Q , has the greater recorded IC50? Your choice should be expressed through its label.
Q

P = Cn1cc(-c2cc(C(=O)Nc3cccc(Cl)c3)c(OCc3ccc(F)cc3)cc2C(=O)N2CCOCC2)cn1
Q = Cn1cc(-c2cc(OCc3ccc(F)cc3)c(C(=O)Nc3cccnc3)cc2CN2CCOCC2)cn1
Which of these two has the smaller recorded IC50: P or Q ? Your choice should be expressed through its label.
P

* * *

- target_under_test: 6His-Tev-LRRK2 (1326-2527) (Homo sapiens)
- Construct: A LRRK2 cDNA encoding residues 1326-2527 was received from Dundee University; made in house; host or cells: Spodoptera frugiperda (Sf9) insect cells, baculovirus (pFB-HTb)
- assay_comment: LRRK2 peptide substrate assay
- Assay type: biochemical
- test_context: mean pIC50 of multiple test results; stated as threshold; read-out: pIC50 in the LRRK2 peptide substrate assay (bounds) (converted)
result_type: IC50

Worked examples, 3 compounds total:
> print(dat)
                           substance.smiles                         target.under.test     result
1  O=C(Nc1ccnnc1)c1cc(Br)c(CN2CCOCC2)cc1OCc1ccccc1  6His-Tev-LRRK2 (1326-2527) (Homo sapiens)   ≤ 0.1 µM
2  CN1CCN(C(=O)c2cc(OCc3ccccc3)c(C(=O)Nc3cccnn3)cc2Cl)CC1  6His-Tev-LRRK2 (1326-2527) (Homo sapiens)   ≤ 0.1 µM
3  O=C(Nc1ccnnc1)c1cc(C(F)(F)F)c(C(=O)N2CCCCC2)cc1OCc1ccccc1  6His-Tev-LRRK2 (1326-2527) (Homo sapiens)  ≤ 1.26 µM

Alright, here's another compound for you.
Data request, read-out IC50, for `Cc1cc(OCc2ccccc2)c(C(=O)Nc2ccnnc2)cc1Br`
≤ 0.01 µM

* * *

- target_under_test: 6His-Tev-LRRK2 (1326-2527) (Homo sapiens)
- Construct: A LRRK2 cDNA encoding residues 1326-2527 was received from Dundee University; made in house; host or cells: Spodoptera frugiperda (Sf9) insect cells, baculovirus (pFB-HTb)
- assay_comment: LRRK2 peptide substrate assay
- Assay type: biochemical
- test_context: mean pIC50 of multiple test results; stated as threshold; read-out: pIC50 in the LRRK2 peptide substrate assay (bounds) (converted)
Each entry below carries its recorded IC50.

Worked examples, 5 molecules total:
> print(dat)
                                   molecule    result
1  O=C(Nc1cccnc1)c1cc(Cl)c(C(=O)N2CCOCC2)cc1OCc1ccccc1  ≤ 100 nM
2  CN1CCN(C(=O)c2cc(OCc3ccccc3)c(C(=O)Nc3ccnnc3)cc2Cl)CC1  ≤ 100 nM
3  Cn1cc(-c2cc(C(=O)Nc3cccnc3)c(OCc3ccccc3)cc2CN2CCOCC2)cn1  ≤ 100 nM
4  Cc1cc(C(=O)Nc2ccnnc2)c(OCc2ccccc2)cc1-c1cnn(C)c1   ≤ 10 nM
5   Cc1cc(C(=O)Nc2cccnc2)c(OCc2ccccc2)cc1Br   ≤ 10 nM

Data request, read-out IC50, for `Cc1nocc1NC(=O)c1cc(-c2cnn(C)c2)c(C(=O)N2CCOCC2)cc1OCc1ccccc1`
≤ 100 nM

Then this molecule: `Cc1cc(OCc2ccccc2)c(C(=O)Nc2cccnc2)cc1-c1cnn(C)c1`
≤ 100 nM

Then this molecule: Cn1cc(-c2cc(C(=O)Nc3cccc(Cl)c3)c(OCc3ccccc3)cc2CN2CCOCC2)cn1 [Example 49]
≤ 100 nM

Then this molecule: `O=C(Nc1cccnc1)c1cc(C(F)(F)F)c(CN2CCOCC2)cc1OCc1ccccc1`
≤ 100 nM

Then this molecule: `O=C(Nc1ccnnc1)c1cc(C(F)(F)F)c(CN2CCOCC2)cc1OCc1ccccc1`
≤ 1260 nM

* * *

- target_under_test: 6His-Tev-LRRK2 (1326-2527) (Homo sapiens, UniProt Q5S007)
- Construct: A LRRK2 cDNA encoding residues 1326-2527 was received from Dundee University; made in house; host or cells: Spodoptera frugiperda (Sf9) insect cells, baculovirus (pFB-HTb)
- Sequence (Q5S007 1326-2527): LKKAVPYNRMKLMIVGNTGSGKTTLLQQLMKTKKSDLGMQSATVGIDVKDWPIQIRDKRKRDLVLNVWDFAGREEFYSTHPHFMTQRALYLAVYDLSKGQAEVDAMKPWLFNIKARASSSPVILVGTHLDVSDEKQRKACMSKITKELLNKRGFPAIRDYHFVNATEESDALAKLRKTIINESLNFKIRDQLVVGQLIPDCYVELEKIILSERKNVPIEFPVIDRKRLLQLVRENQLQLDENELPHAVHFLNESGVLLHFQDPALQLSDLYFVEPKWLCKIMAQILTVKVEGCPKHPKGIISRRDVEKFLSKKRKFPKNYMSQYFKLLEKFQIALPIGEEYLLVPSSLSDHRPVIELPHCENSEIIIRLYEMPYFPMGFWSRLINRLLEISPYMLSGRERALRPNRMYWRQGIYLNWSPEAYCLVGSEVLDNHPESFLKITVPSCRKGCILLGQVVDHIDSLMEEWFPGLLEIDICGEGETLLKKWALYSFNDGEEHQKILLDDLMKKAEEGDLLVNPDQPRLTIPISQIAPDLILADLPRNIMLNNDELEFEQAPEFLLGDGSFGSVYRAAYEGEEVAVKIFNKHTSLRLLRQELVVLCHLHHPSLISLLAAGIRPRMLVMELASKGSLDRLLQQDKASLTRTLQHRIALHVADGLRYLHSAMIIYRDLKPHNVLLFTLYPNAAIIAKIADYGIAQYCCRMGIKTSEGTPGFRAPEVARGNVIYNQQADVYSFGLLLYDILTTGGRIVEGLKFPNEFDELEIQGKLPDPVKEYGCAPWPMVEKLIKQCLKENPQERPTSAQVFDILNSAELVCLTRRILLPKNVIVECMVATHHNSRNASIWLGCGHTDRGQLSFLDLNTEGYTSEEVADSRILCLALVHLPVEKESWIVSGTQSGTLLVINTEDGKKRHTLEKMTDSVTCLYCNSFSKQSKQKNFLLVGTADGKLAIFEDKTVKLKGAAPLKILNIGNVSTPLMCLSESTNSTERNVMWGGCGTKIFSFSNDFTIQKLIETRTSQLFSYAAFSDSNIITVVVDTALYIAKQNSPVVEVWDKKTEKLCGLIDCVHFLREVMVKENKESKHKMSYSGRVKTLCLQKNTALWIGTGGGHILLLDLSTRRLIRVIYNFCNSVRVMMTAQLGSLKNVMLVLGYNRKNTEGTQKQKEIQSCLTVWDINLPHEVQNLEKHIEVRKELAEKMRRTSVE
- assay_comment: LRRK2 AlphaScreen desensitised protein substrate assay
- Assay type: biochemical
- test_context: mean pIC50 of multiple test results; stated as threshold; read-out: pIC50 in the LRRK2 alphascreen desensitised protein substrate assay (bounds) (converted)
result_type: IC50

> print(dat)
                           substance.smiles     result
1  Cn1cc(-c2cc(C(=O)Nc3ccnnc3)c(OCc3ccccc3)cc2C(=O)N2CCOCC2)cn1  ≤ 25.1 µM

Data request, read-out IC50, for `O=C(Nc1cccc(F)c1)c1cc(C(F)(F)F)c(CN2CCOCC2)cc1OCc1ccccc1`
> 25.1 µM

Then this molecule: `O=C(Nc1cccnc1)c1cc(C(F)(F)F)c(CN2CCOCC2)cc1OCc1ccccc1`
≤ 0.316 µM

* * *

- target_under_test: 6His-Tev-LRRK2 (1326-2527) (Homo sapiens)
- Construct: A LRRK2 cDNA encoding residues 1326-2527 was received from Dundee University; made in house; host or cells: Spodoptera frugiperda (Sf9) insect cells, baculovirus (pFB-HTb)
- assay_comment: LRRK2 peptide substrate assay
- Assay type: biochemical
- test_context: mean pIC50 of multiple test results; stated as threshold; read-out: pIC50 in the LRRK2 peptide substrate assay (bounds) (converted)
result_type: IC50

Worked examples, 2 compounds total:
> print(dat)
                           substance.smiles    result
1  Cc1nocc1NC(=O)c1cc(Cl)c(C(=O)N2CCC(F)(F)C2)cc1OCc1ccccc1  ≤ 100 nM
2  O=C(Nc1cccc(F)c1)c1cc(C(F)(F)F)c(CN2CCOCC2)cc1OCc1ccccc1   ≤ 10 nM

Data request, read-out IC50, for `Cc1nocc1NC(=O)c1cc(-c2cnn(C)c2)c(CN2CCOCC2)cc1OCc1ccc(F)cc1F`
> 25100 nM

* * *

- target_under_test: 6His-Tev-LRRK2 (1326-2527) (Homo sapiens)
- Construct: A LRRK2 cDNA encoding residues 1326-2527 was received from Dundee University; made in house; host or cells: Spodoptera frugiperda (Sf9) insect cells, baculovirus (pFB-HTb)
- assay_comment: LRRK2 peptide substrate assay
- Type: biochemical
- test_context: mean pIC50 of multiple test results; stated as threshold; read-out: pIC50 in the LRRK2 peptide substrate assay (bounds) (converted)
result_type: IC50

> print(dat)
                                   compound  result.type     result
1  Cn1cc(-c2cc(C(=O)Nc3cccnc3)c(OCc3ccc(F)cc3)cc2C(=O)N2CCOCC2)cn1         IC50   ≤ 100 nM
2  O=C(Nc1ccnnc1)c1cc(C(F)(F)F)c(CN2CCCCC2)cc1OCc1ccccc1         IC50  ≤ 1260 nM
3  O=C(Nc1cccnc1)c1cc(C(F)(F)F)c(C(=O)N2CCOCC2)cc1OCc1ccccc1         IC50   ≤ 100 nM
4  Cn1cc(-c2cc(C(=O)Nc3cccc(Cl)c3)c(OCc3ccccc3)cc2CN2CCOCC2)cn1 [Example 51]         IC50   ≤ 100 nM
5  O=C(Nc1cccc(Cl)c1)c1cc(C(F)(F)F)c(CN2CCOCC2)cc1OCc1ccccc1         IC50  ≤ 1260 nM

Data request, read-out IC50, for `O=C(Nc1cccnc1)c1cc(Br)c(CN2CCOCC2)cc1OCc1ccccc1`
≤ 10 nM

Then this compound: `Cc1cc(C(=O)Nc2cccnc2)c(OCc2ccccc2)cc1-c1cnn(C)c1`
≤ 10 nM

Then this compound: `O=C(Nc1cccnc1)c1cc(Cl)c(C(=O)N2CCC(F)(F)C2)cc1OCc1ccccc1`
≤ 100 nM
